Target: GPR119 (Homo sapiens)
Sequence (Q8TDV5 1-335): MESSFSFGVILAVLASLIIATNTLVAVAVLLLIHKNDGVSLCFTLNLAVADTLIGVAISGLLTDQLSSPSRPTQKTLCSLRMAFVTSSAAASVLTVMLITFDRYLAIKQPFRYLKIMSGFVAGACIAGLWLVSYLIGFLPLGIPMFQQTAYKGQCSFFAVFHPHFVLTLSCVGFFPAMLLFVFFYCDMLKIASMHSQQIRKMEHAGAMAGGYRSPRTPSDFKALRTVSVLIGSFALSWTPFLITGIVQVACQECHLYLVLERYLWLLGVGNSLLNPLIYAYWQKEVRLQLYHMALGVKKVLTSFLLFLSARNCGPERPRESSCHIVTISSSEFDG
Assay: Controlling Effect of GPR119 in CRE-bla CHO-K1 Cells (EC50)
Conditions: GPR119 CRE-bla CHO-K1 cell line, 5 hr incubation with compound, β-lactamase LiveBLAzer-FRET B/G readout; read-out: controlling effect against GPR119 in CRE-bla CHO-K1 cell line (EC50)
This listing pairs compounds with measured EC50.
measure.name: EC50

{"structure.smiles.string": "CC(C)(C)c1noc(N2CCC(Oc3ncnc4c(-c5ccc(S(C)(=O)=O)cc5F)csc34)CC2)n1", "subject.of.test": "GPR119 (Homo sapiens)", "measure.name": "EC50", "assay.result": "< 100 nM"}
{"structure.smiles.string": "CCc1cnc(N2CCN(c3ncnc4c(-c5ccc(S(C)(=O)=O)cc5)csc34)CC2)nc1", "subject.of.test": "GPR119 (Homo sapiens)", "measure.name": "EC50", "assay.result": "100 to 1000 nM"}
{"structure.smiles.string": "CC(C)c1noc(N2CCC(Oc3ncnc4c(-c5ccc(S(C)(=O)=O)cc5F)cn(C)c34)CC2)n1", "subject.of.test": "GPR119 (Homo sapiens)", "measure.name": "EC50", "assay.result": "< 100 nM"}
{"structure.smiles.string": "CC(C)c1noc(N2CCC(Oc3ncnc4c(-c5ccc(S(C)(=O)=O)cc5F)csc34)CC2)n1", "subject.of.test": "GPR119 (Homo sapiens)", "measure.name": "EC50", "assay.result": "< 100 nM"}
{"structure.smiles.string": "Cn1cc(-c2ccc(S(C)(=O)=O)cc2F)c2ncnc(OC3CCN(c4ncc(C(F)(F)F)cn4)CC3)c21", "subject.of.test": "GPR119 (Homo sapiens)", "measure.name": "EC50", "assay.result": "< 100 nM"}
{"structure.smiles.string": "CS(=O)(=O)c1ccc(-c2csc3c(N4CCC(c5nc(C6CCCC6)no5)CC4)ncnc23)c(F)c1", "subject.of.test": "GPR119 (Homo sapiens)", "measure.name": "EC50", "assay.result": "< 100 nM"}
{"structure.smiles.string": "CC(C)c1noc(N2CCC(Oc3ncnc4c(-c5ccc([N+](=O)[O-])cc5)cn(C)c34)CC2)n1", "subject.of.test": "GPR119 (Homo sapiens)", "measure.name": "EC50", "assay.result": "> 1000 nM"}
{"structure.smiles.string": "CS(=O)(=O)c1ccc(-c2csc3c(N4CCCC4)ncnc23)cc1", "subject.of.test": "GPR119 (Homo sapiens)", "measure.name": "EC50", "assay.result": "> 1000 nM"}
{"structure.smiles.string": "CC(C)c1noc(C2CCN(c3ncnc4c(-c5ccc(S(=O)(=O)C6CC6)cc5)csc34)CC2)n1", "subject.of.test": "GPR119 (Homo sapiens)", "measure.name": "EC50", "assay.result": "< 100 nM"}
{"structure.smiles.string": "CS(=O)(=O)c1ccc(-c2csc3c(OC4CCN(c5nc(C6CCCC6)no5)CC4)ncnc23)c(F)c1", "subject.of.test": "GPR119 (Homo sapiens)", "measure.name": "EC50", "assay.result": "< 100 nM"}
{"structure.smiles.string": "CC(C)c1noc(N2CCC(Oc3ncnc4c(-c5ccc(S(=O)(=O)C(F)(F)F)cc5F)csc34)CC2)n1", "subject.of.test": "GPR119 (Homo sapiens)", "measure.name": "EC50", "assay.result": "> 1000 nM"}
{"structure.smiles.string": "CCc1cnc(N2CCC(Oc3ncnc4c(-c5ccc(C#N)cc5)cn(C)c34)CC2)nc1", "subject.of.test": "GPR119 (Homo sapiens)", "measure.name": "EC50", "assay.result": "> 1000 nM"}
{"structure.smiles.string": "Cn1cc(-c2ccc(S(C)(=O)=O)cc2)c2ncnc(OC3CCNCC3)c21", "subject.of.test": "GPR119 (Homo sapiens)", "measure.name": "EC50", "assay.result": "> 1000 nM"}
{"structure.smiles.string": "CCN(c1ncnc2c(-c3ccc(S(C)(=O)=O)cc3)csc12)C1CCN(c2ccc(C(F)(F)F)cn2)CC1", "subject.of.test": "GPR119 (Homo sapiens)", "measure.name": "EC50", "assay.result": "> 1000 nM"}
{"structure.smiles.string": "CC(C)OC(=O)N1CCC(Oc2ncnc3c(-c4ccc(S(C)(=O)=O)cc4F)csc23)CC1", "subject.of.test": "GPR119 (Homo sapiens)", "measure.name": "EC50", "assay.result": "< 100 nM"}
{"structure.smiles.string": "CC(C)(C)c1noc(N2CCC(Oc3ncnc4c(-c5ccc(-n6cncn6)cc5)csc34)CC2)n1", "subject.of.test": "GPR119 (Homo sapiens)", "measure.name": "EC50", "assay.result": "< 100 nM"}
